Assay Target: furin, P09958;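 further: purified furin at 1:10 enzyme:substrate in 50 mM HEPES pH 7.5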
Sequence (P09958 whole entry): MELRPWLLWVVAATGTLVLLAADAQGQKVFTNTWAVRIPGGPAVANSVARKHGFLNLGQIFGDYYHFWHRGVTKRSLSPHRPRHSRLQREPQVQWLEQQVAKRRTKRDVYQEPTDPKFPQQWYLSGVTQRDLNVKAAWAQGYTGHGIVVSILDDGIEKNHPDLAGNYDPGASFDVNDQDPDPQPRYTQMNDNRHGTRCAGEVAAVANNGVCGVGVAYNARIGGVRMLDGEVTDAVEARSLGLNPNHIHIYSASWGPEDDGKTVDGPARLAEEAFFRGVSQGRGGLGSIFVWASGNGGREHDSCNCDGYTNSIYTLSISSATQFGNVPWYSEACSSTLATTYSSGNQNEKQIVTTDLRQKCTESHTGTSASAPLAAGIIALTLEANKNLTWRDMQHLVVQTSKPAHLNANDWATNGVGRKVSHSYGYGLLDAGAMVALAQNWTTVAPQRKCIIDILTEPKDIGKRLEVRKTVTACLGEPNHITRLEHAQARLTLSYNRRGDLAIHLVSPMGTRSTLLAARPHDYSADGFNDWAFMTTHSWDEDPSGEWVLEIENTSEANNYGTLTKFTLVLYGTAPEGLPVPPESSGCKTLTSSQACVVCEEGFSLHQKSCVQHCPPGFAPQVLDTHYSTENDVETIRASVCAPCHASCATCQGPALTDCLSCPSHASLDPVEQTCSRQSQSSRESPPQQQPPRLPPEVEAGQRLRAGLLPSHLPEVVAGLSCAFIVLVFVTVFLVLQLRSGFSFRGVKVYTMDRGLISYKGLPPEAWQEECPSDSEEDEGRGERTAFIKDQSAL
Assay Procedure: furin cleavage Z-score vs untreated control; higher = more cleavage, active = 3.5 or more, inactive = 1 or less, 8 variable residues between constant flanks
Settings: 7.5 min
The other results are listed elsewhere or left out. No count for the full screen is at hand.
Experimental Readout: furin cleavage Z-score

• CAPKGRPKRAAGNASASA [FS-1047] = 11.3 (active)
• CAREGNASRCAGNASASA [HC276] = -0.0161 (inactive)
• CAKDSRQKRSAGNASASA [FS-670] = 10.3 (active)

## Task What furin cleavage Z-score value was documented for this sequence, CAHFSRQKRSAGNASASA [FS-535] ?
## Result 8.68 (active)

The values you see were collected from the supplement of paper PMC3545927.
